- Tested on: Escherichia coli (ATCC 25922)
- Measurement Description: Antimicrobial activity, MBC, E. coli ATCC 25922
- Type: cell-based
- Study Conditions: pH 4 (Sal), 1 h at room temperature
Hi there, I'd appreciate the recorded Minimum Bactericidal Concentration (MBC) (≧99.9% kill) for every entry that follows.
Give just the number in mg/L; leave the unit off.

Lab note: CC1(CS(=O)(=O)O)COC(=O)N1Cl (centres unmarked) [Compound 22-01] gave Minimum Bactericidal Concentration (MBC) (≧99.9% kill) of 256

Data point: CC[N+](C)(C)CC1(C)COC(=O)N1Cl.[Cl-] (centres unmarked) [Compound 22-38] ; Minimum Bactericidal Concentration (MBC) (≧99.9% kill) = 16

Recorded Minimum Bactericidal Concentration (MBC) (≧99.9% kill) (compound CC1(C[N+](C)(C)C)COC(=O)N1Cl.[Cl-] (centres unmarked) [Compound 22-04] ): 16

// sample CN1C(=O)N(Cl)C(C)(C[N+](C)(C)C)C1=O.[Cl-] (centres unmarked) [Compound 22-27] , its Minimum Bactericidal Concentration (MBC) (≧99.9% kill) was 16

Given item C[N+]1(C)CCC2(CC1)CN(Cl)C(=O)O2.[Cl-] [Compound 22-36] , the value recorded as its Minimum Bactericidal Concentration (MBC) (≧99.9% kill) is 256

Origin of values: patent US8722715B2
